System: mu opiate receptor (MOR)
Assay Details: MOR agonist activity using [35S]GTPγS binding assay in striatal membranes
Assay type: biochemical
Assay Conditions: Series C-2; 1 μM compound, relative to DAMGO
% DAMGO (1 μM) values for the molecules below.

Use the examples below as a reference point.
{"Molecule": "CC(=O)c1ccc(S(=O)(=O)N2CC(=O)NC23CCNCC3)cc1 [Compound C0086M]", "Target Under Test": "mu opiate receptor (MOR)", "% DAMGO (1 μM)": "104.9%"}
{"Molecule": "CCN1CCC2(CC1)OCCN2S(=O)(=O)c1ccc(OC)cc1 [Compound C0089M]", "Target Under Test": "mu opiate receptor (MOR)", "% DAMGO (1 μM)": "134.4%"}
{"Molecule": "CCCCN1CCC2(CC1)OCCN2S(=O)(=O)c1ccc(OC)cc1 [Compound C0102M]", "Target Under Test": "mu opiate receptor (MOR)", "% DAMGO (1 μM)": "122.4%"}
{"Molecule": "O=C1CN(Cc2ccccc2)C2(CCNCC2)N1 [Compound C0115M]", "Target Under Test": "mu opiate receptor (MOR)", "% DAMGO (1 μM)": "102.0%"}
{"Molecule": "O=[N+]([O-])c1ccc(S(=O)(=O)N2CCC3(CC2)NCCCO3)cc1", "Target Under Test": "mu opiate receptor (MOR)", "% DAMGO (1 μM)": "109.1%"}
{"Molecule": "CC(=O)c1ccc(S(=O)(=O)N2CCOC23CCN(CC(=O)O)CC3)cc1 [Compound C0100M]", "Target Under Test": "mu opiate receptor (MOR)", "% DAMGO (1 μM)": "110.6%"}
{"Molecule": "CC(=O)c1ccc(S(=O)(=O)N2CC(CN(C)C)OC23CCNCC3)cc1 (stereo not drawn) [Compound C0118M]", "Target Under Test": "mu opiate receptor (MOR)", "% DAMGO (1 μM)": "105.4%"}
{"Molecule": "COc1ccc(S(=O)(=O)N2CCOC23CCNCC3)cc1", "Target Under Test": "mu opiate receptor (MOR)", "% DAMGO (1 μM)": "115.0%"}

// next entry
Quick check: % DAMGO (1 μM) of CC(=O)c1ccc(S(=O)(=O)N2CCOC23CCN(C)CC3)cc1 [Compound C0093M] ?
96.4%

Where do these numbers come from? They come from patent US10363239B2.
